test system: KG-1; assay: Cell viability assay, leukemia KG-1; assay type: cell-based; conditions: Homo sapiens, 72 h, read-out: Antiproliferative activity GI50 KG-1

| COMPOUND | MEASUREMENT_UNIT | GI50 |
| --- | --- | --- |
| Cc1nc(N(C)C)sc1-c1nc(Nc2ccc(N3CCN(C)CC3)cn2)ncc1F [Compound 46] | µM | 0.005 |
| CCc1nc(C)c(-c2ccnc(Nc3ccc(N4CCN(CC)CC4)cn3)n2)s1 [Compound 9] | µM | 0.047 |
| CNc1nc(C)c(-c2nc(Nc3ccc(N4CCC(N(C)C)CC4)cn3)ncc2F)s1 [Compound 47] | µM | 0.006 |
| CNc1nc(C)c(-c2nc(Nc3ccc(N4CCN(C(C)=O)CC4)cn3)ncc2C#N)s1 [Compound 34] | µM | 0.112 |
